Biological target: Neu5Ac(a2-3)Gal(b1-4)GlcNAc(b1-3)Gal(b1-4)[Fuc(a1-3)]GlcNAc
Test: glycan array binding signal (z-score within array); higher = stronger binding
Conditions: glycan notation: IUPAC condensed, linker removed
Shown is part of a subset that was picked to be rich in the strongest signals.
I'd appreciate it if you could supply glycan array binding signal (z-score) values for the items below.
Just the number, please.

Query: Item SAG1 (Toxoplasma gondii), P13664 (protein) MSVSLHHFIISSGFLTSMFPKAVRRAVTAGVFAAPTLMSFLRCGVMASDPPLVANQVVTCPDKKSTAAVILTPTENHFTLKCPKTALTEPPTLAYSPNRQICPAGTTSSCTSKAVTLSSLIPEAEDSWWTGDSASLDTAGIKLTVPIEKFPVTTQTFVVGCIKGDDAQSCMVTVTVQARASSVVNNVARCSYGADSTLGPVKLSAEGPTTMTLVCGKDGVKVPQDNNQYCSGTTLTGCNEKSFKDILPKLTENPWQGNASSDKGATLTIKKEAFPAESKSVIIGCTGGSPEKHHCTVKLEFAGAAGSAKSAAGTASHVSIFAMVIGLIGSIAACVA has what recorded glycan array binding signal (z-score)?
Response: 1.71

Query: Okay, and Pwp4 (Candida glabrata) (protein) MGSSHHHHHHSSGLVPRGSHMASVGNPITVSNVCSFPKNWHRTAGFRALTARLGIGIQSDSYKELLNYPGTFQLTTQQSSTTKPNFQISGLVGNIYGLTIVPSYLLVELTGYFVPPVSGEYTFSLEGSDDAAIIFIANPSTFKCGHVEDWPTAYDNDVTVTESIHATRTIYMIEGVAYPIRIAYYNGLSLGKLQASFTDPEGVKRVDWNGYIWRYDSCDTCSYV ?
Response: -0.414
